System: Ctenocephalides felis
test_description: Ctenocephalides felis oral test
Format: in vivo
condition_details: application rate 100 ppm in citrated cattle blood; after 2 days
metric: efficacy (kill in %)
Supply the numeric figure in %, leaving out any unit text.

Illustrative cases are given below, each with its answer.
CCOCC(C)(C)C(=O)Nc1cc(-c2cnn(-c3c(C(F)(F)F)c(C(F)(F)C(F)(F)F)nn3C)c2)ccc1F = 90
Cn1nc(C(F)(F)C(F)(F)F)c(C(F)(F)F)c1-n1cc(-c2cccc(NC(=O)c3cc(F)cc(F)c3)c2)cn1 = 100

Entry Cn1nc(C(F)(F)C(F)(F)F)c(C(F)(F)F)c1-n1cc(-c2ccc(F)c(NC(=O)C(F)(F)C(F)F)c2)cn1 has what efficacy (kill in %)?
100
